Target system: Carnitine O-palmitoyltransferase 1, muscle isoform (Homo sapiens, UniProt Q92523)
Sequence (Q92523 whole entry): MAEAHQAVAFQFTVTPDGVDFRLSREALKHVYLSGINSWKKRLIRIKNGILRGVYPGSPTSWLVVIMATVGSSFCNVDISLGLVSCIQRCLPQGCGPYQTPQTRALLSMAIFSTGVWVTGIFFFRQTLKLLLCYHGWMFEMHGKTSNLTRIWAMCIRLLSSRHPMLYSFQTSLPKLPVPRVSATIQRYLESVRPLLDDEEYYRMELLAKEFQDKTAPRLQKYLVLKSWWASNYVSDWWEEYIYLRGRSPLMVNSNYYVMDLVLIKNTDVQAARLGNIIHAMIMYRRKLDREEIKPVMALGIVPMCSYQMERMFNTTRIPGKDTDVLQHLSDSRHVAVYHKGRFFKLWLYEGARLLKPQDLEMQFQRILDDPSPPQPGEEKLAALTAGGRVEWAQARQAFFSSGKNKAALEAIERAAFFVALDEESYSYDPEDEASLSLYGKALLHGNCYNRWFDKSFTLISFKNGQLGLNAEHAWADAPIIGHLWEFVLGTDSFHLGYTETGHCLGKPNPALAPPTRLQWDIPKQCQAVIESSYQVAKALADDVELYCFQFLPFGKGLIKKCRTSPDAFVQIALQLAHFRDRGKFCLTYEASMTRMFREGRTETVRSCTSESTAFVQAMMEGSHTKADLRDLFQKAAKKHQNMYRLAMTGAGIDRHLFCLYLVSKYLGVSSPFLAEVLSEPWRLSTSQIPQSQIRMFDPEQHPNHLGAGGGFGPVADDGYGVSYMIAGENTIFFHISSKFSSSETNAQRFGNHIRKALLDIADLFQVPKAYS
Procedure details: SUPPLEMENTARY: Inhibition of Carnitine palmitoyltransferase 1, muscle isoform
pIC50: −log10 of the molar value.
Label Not fulfilled if pIC50 falls below 5; label Fulfilled in every other case.

# Compound, Label value
rows = [
    ("Cc1cc(-c2n[nH]c([C@H]3CCCCN3C(=O)COc3ccccc3)n2)n(C)n1", "Not fulfilled"),
    ("O=C1Cc2cc(-c3csc([C@H]4CCCCN4C(=O)COc4ccccc4)n3)ccc2N1", "Not fulfilled"),
    ("COc1ccc(C)cc1S(=O)(=O)n1ccc2ccc(C(=O)Nc3ccc(C(=O)O)cc3)cc21", "Fulfilled"),
    ("O=C(COc1ccccc1)N1CCCC[C@@H]1c1nc(-c2ccc(Cl)cc2)no1", "Not fulfilled"),
    ("COc1ccc(Cl)cc1S(=O)(=O)N1COc2ccc(C(=O)Nc3ccn(CC(=O)O)n3)cc21", "Not fulfilled"),
    ("COc1ccc(Cl)cc1S(=O)(=O)N(C)c1cc(C(=O)Nc2nc(CC(=O)O)cs2)cc2c1OCO2", "Fulfilled"),
    ("Cc1sc([C@H]2CCCCN2C(=O)COc2ccccc2)nc1-c1cccc(C(=O)O)c1", "Not fulfilled"),
    ("O=C(COc1ccccc1)N1CCCC[C@@H]1c1nnn(-c2ccc3[nH]ccc3c2)n1", "Not fulfilled"),
    ("COc1ccc(Cl)cc1-c1csc([C@H]2CCCCN2C(=O)COc2ccccc2)n1", "Not fulfilled"),
    ("COc1ccc(Cl)cc1S(=O)(=O)N1CCOc2ccc(C(=O)Nc3ccc(C(=O)O)nc3)cc21", "Not fulfilled"),
    ("O=C([C@H]1CCCCN1C(=O)COc1ccccc1)N1CCN(c2cccc(Cl)c2)CC1", "Not fulfilled"),
    ("O=C(COc1ccccc1)N1CCCC[C@@H]1c1noc(-c2ccc(Cl)nc2)n1", "Not fulfilled"),
    ("Cc1cc(C)cc(S(=O)(=O)N2CC[S+]([O-])c3ccc(C(=O)Nc4ccc(C(=O)O)cc4)cc32)c1 (stereo not drawn)", "Not fulfilled"),
    ("CN1CCN(C(=O)COc2ccccc2)[C@@H](c2nc(-c3ccc4c(c3)CC(=O)N4)no2)C1", "Not fulfilled"),
    ("COc1ccc(Cl)cc1S(=O)(=O)c1nn(C)c2ccc(C(=O)Nc3ccc(C(=O)O)cc3)cc12", "Not fulfilled"),
    ("COc1ccc(Cl)cc1S(=O)(=O)N(c1cc(C(=O)Nc2nc(CC(=O)O)cs2)cc2c1OCO2)C(C)C", "Fulfilled"),
    ("COc1ccc(Cl)cc1CN1C(=O)C2(CC2)c2ccc(C(=O)Nc3nc(CC(=O)O)cs3)cc21", "Fulfilled"),
    ("COc1ccc(Cl)cc1S(=O)(=O)N1CCCCc2ccc(C(=O)Nc3ccc(C(=O)O)cc3)cc21", "Not fulfilled"),
]

* * *

Procedure details: SUPPLEMENTARY: Lipophilicity (log D) Determination by high-throughput shake-flask
Format: physicochemical
Particulars: octanol/water
One threshold, 3, splits the recorded logD values: lower ones are true, equal or higher ones are false.

# Structure smiles string, Label value
records = [
    ("O=C(COc1ccccc1)N1CCCC[C@@H]1c1nc(-c2cccc(-n3cn[nH]c3=O)c2)no1", "true"),
    ("O=C(COc1ccccc1)N1CCCC[C@@H]1c1nc(-c2ccc([N+](=O)[O-])s2)no1", "false"),
    ("O=C1COc2ccc(-c3nc([C@H]4CCCCN4C(=O)COc4ccccc4)no3)cc2N1", "false"),
    ("CCN(CC)C(=O)c1ccc(-c2noc([C@H]3CCCCN3C(=O)COc3ccccc3)n2)cc1", "false"),
    ("COc1ccc(Cl)cc1S(=O)(=O)N[C@@H]1CCCN(C(=O)COc2ccccc2)C1", "true"),
    ("O=C(COc1ccccc1)N1CCOC[C@@H]1c1nc(-c2ccc3[nH]cnc3c2)no1", "true"),
    ("O=C(c1cc(-c2noc([C@H]3CCCCN3C(=O)COc3ccccc3)n2)ccn1)N1CCOCC1", "true"),
    ("Cn1ccc(-c2nc([C@H]3CCCCN3C(=O)COc3ccccc3)no2)n1", "true"),
    ("O=C(COc1ccccc1)N1CCCC[C@@H]1c1nc(-c2cccc(F)c2)n[nH]1", "false"),
]

* * *

Target system: Carnitine O-palmitoyltransferase 1, muscle isoform (Homo sapiens)
Procedure details: SUPPLEMENTARY: Inhibition of Carnitine palmitoyltransferase 1, muscle isoform
One threshold, 9 µM, splits the recorded IC50 values: lower ones are condition met, equal or higher ones are condition not met.

# Compound, Target system, Label value
records = [
    ("Cc1nnsc1-c1noc([C@H]2CCCCN2C(=O)COc2ccccc2)n1", "Carnitine O-palmitoyltransferase 1, muscle isoform (Homo sapiens)", "condition not met"),
    ("O=C1CCC(=O)N1c1cc(F)cc(-c2noc([C@H]3CCCCN3C(=O)COc3ccccc3)n2)c1", "Carnitine O-palmitoyltransferase 1, muscle isoform (Homo sapiens)", "condition not met"),
    ("CC(=O)Nc1ccc(-n2nnc([C@H]3CCCCN3C(=O)COc3ccccc3)n2)cc1", "Carnitine O-palmitoyltransferase 1, muscle isoform (Homo sapiens)", "condition not met"),
    ("COc1ccc(Cl)cc1S(=O)(=O)N1CCOc2ccc(C(=O)Nc3ccc(CCC(=O)O)cc3)cc21", "Carnitine O-palmitoyltransferase 1, muscle isoform (Homo sapiens)", "condition met"),
    ("COc1ccc(Cl)cc1S(=O)(=O)N1COc2c(C)cc(C(=O)Nc3ccc(C(=O)O)cc3)cc21", "Carnitine O-palmitoyltransferase 1, muscle isoform (Homo sapiens)", "condition not met"),
    ("O=C(COc1ccccc1)N1CCCC[C@@H]1c1nc(-c2cccc(-c3n[nH]c(=O)o3)c2)n[nH]1", "Carnitine O-palmitoyltransferase 1, muscle isoform (Homo sapiens)", "condition not met"),
    ("COc1ccc(Cl)cc1S(=O)(=O)N1CCS(=O)(=O)c2ccc(C(=O)Nc3ccc(C(=O)O)c(F)c3)cc21", "Carnitine O-palmitoyltransferase 1, muscle isoform (Homo sapiens)", "condition met"),
    ("O=C(COc1ccccc1)N1CCCC[C@@H]1c1nc(-c2ccc3nccn3c2)no1", "Carnitine O-palmitoyltransferase 1, muscle isoform (Homo sapiens)", "condition not met"),
    ("CC(=O)Nc1ccc(-c2csc([C@H]3CCCCN3C(=O)COc3ccccc3)n2)cc1", "Carnitine O-palmitoyltransferase 1, muscle isoform (Homo sapiens)", "condition not met"),
    ("COc1ccc(C)cc1S(=O)(=O)N1CCc2ccc(C(=O)Nc3ccc(CC(=O)O)cc3)cc21", "Carnitine O-palmitoyltransferase 1, muscle isoform (Homo sapiens)", "condition met"),
    ("O=C(O)c1ccccc1CCc1ccc(NS(=O)(=O)c2ccc(Cl)cc2)cc1", "Carnitine O-palmitoyltransferase 1, muscle isoform (Homo sapiens)", "condition not met"),
    ("CCCN(c1cc(C(=O)Nc2ncc(CC(=O)O)s2)cc2c1OCO2)S(=O)(=O)c1cc(Cl)ccc1OC", "Carnitine O-palmitoyltransferase 1, muscle isoform (Homo sapiens)", "condition met"),
    ("COc1ccc(Cl)cc1S(=O)(=O)N1CCOc2c(Cl)cc(C(=O)Nc3ccc(CC(=O)O)cc3)cc21", "Carnitine O-palmitoyltransferase 1, muscle isoform (Homo sapiens)", "condition met"),
    ("O=C(O)c1ccc(NC(=O)c2ccc3c(c2)N(S(=O)(=O)c2cccc(Cl)c2)CC[S+]3[O-])cc1 (stereo unspecified)", "Carnitine O-palmitoyltransferase 1, muscle isoform (Homo sapiens)", "condition not met"),
    ("COc1ccc(Cl)cc1S(=O)(=O)N1COc2ccc(C(=O)Nc3ccc(C(=O)O)c(Cl)c3)cc21", "Carnitine O-palmitoyltransferase 1, muscle isoform (Homo sapiens)", "condition met"),
    ("O=C([C@H]1CCCCN1C(=O)COc1ccccc1)N1CCc2cccc(Cl)c2C1", "Carnitine O-palmitoyltransferase 1, muscle isoform (Homo sapiens)", "condition not met"),
    ("O=C(O)Cc1csc(NC(=O)c2ccc3c(c2)N(S(=O)(=O)c2cccc(Cl)c2)CCO3)n1", "Carnitine O-palmitoyltransferase 1, muscle isoform (Homo sapiens)", "condition met"),
    ("Cc1cc(C)cc(S(=O)(=O)n2ccc3ccc(C(=O)Nc4ccc(C(=O)O)cc4)cc32)c1", "Carnitine O-palmitoyltransferase 1, muscle isoform (Homo sapiens)", "condition not met"),
    ("O=C1Cc2cc(-c3noc([C@H]4CNCCN4C(=O)COc4ccccc4)n3)ccc2N1", "Carnitine O-palmitoyltransferase 1, muscle isoform (Homo sapiens)", "condition not met"),
    ("O=C(O)c1ccc(C(=O)Nc2nn(Cc3ccc(OC(F)F)cc3)c3ccc(F)cc23)cc1", "Carnitine O-palmitoyltransferase 1, muscle isoform (Homo sapiens)", "condition met"),
    ("O=C(Nc1ccc(C(=O)O)c(F)c1)c1ccc2c(c1)N(S(=O)(=O)c1cccc(C(F)(F)F)c1)CC2", "Carnitine O-palmitoyltransferase 1, muscle isoform (Homo sapiens)", "condition not met"),
    ("COc1ccc(-c2noc(C3C[S+]([O-])CCN3C(=O)COc3ccccc3)n2)cc1 (stereo unspecified)", "Carnitine O-palmitoyltransferase 1, muscle isoform (Homo sapiens)", "condition not met"),
    ("COc1ccc(Cl)cc1S(=O)(=O)N1COc2c(C)cc(C(=O)Nc3ccc(CC(=O)O)cc3)cc21", "Carnitine O-palmitoyltransferase 1, muscle isoform (Homo sapiens)", "condition met"),
    ("COc1ccc(Cl)cc1[S+]([O-])c1c[nH]c2ccc(C(=O)Nc3ccccc3)cc12 (stereo unspecified)", "Carnitine O-palmitoyltransferase 1, muscle isoform (Homo sapiens)", "condition not met"),
    ("O=C(Nc1ccc(-c2nnn[nH]2)cc1)c1nn(Cc2ccc(OC(F)F)cc2)c2ccc(F)cc12", "Carnitine O-palmitoyltransferase 1, muscle isoform (Homo sapiens)", "condition not met"),
    ("CCN1C(=O)CC(C)(C)c2ccc(-c3nc([C@H]4CCCCN4C(=O)COc4ccccc4)no3)cc21", "Carnitine O-palmitoyltransferase 1, muscle isoform (Homo sapiens)", "condition not met"),
    ("CC(=O)Nc1cccc(-c2n[nH]c([C@H]3CCCCN3C(=O)COc3ccccc3)n2)c1", "Carnitine O-palmitoyltransferase 1, muscle isoform (Homo sapiens)", "condition not met"),
    ("NC(=O)c1cncc(-c2noc([C@H]3COCCN3C(=O)COc3ccccc3)n2)c1", "Carnitine O-palmitoyltransferase 1, muscle isoform (Homo sapiens)", "condition not met"),
    ("O=C(O)c1ccc(NC(=O)c2ccc3c(c2)N(S(=O)(=O)c2cccc(Cl)c2)CCS3)cc1", "Carnitine O-palmitoyltransferase 1, muscle isoform (Homo sapiens)", "condition met"),
    ("COc1ccc(Cl)cc1S(=O)(=O)N1COc2ccc(C(=O)Nc3ccc(C(=O)O)cc3)cc21", "Carnitine O-palmitoyltransferase 1, muscle isoform (Homo sapiens)", "condition met"),
    ("O=C(COc1ccccc1)N1CCCC[C@@H]1c1noc(-c2cc(Cl)nnc2O)n1", "Carnitine O-palmitoyltransferase 1, muscle isoform (Homo sapiens)", "condition not met"),
    ("Cn1cc(S(=O)(=O)c2cccc(Cl)c2)c2cc(C(=O)Nc3nc(CC(=O)O)cs3)ccc21", "Carnitine O-palmitoyltransferase 1, muscle isoform (Homo sapiens)", "condition met"),
    ("COc1ccc(Cl)cc1S(=O)(=O)Nc1cc(C(=O)Nc2ccc(C(=O)O)cc2)cn(C)c1=O", "Carnitine O-palmitoyltransferase 1, muscle isoform (Homo sapiens)", "condition not met"),
    ("COC[C@@H]1CCN(NC(=O)c2cccc(-c3n[nH]c([C@H]4CCCCN4C(=O)COc4ccccc4)n3)c2)C1", "Carnitine O-palmitoyltransferase 1, muscle isoform (Homo sapiens)", "condition not met"),
    ("COc1ccc(Cl)cc1S(=O)(=O)N1CCc2c(C)cc(C(=O)Nc3nc(CC(=O)O)cs3)cc21", "Carnitine O-palmitoyltransferase 1, muscle isoform (Homo sapiens)", "condition not met"),
]
